cynomolgus monkey k(off) values for the molecules below.
Tested on: cynomolgus monkey VTCN1 protein
EXPERIMENTAL DETAILS: Affinity by OCTET, cynomolgus monkey VTCN1
Format: binding
RUN PARAMETERS: Table 12
Answer as a number with no unit attached.

MOLECULE | cynomolgus monkey k(off)
12B5_44B1: fully human VTCN1 antibody; VH SEQ ID NO: 264, VL SEQ ID NO: 268 (antibody, V domains shown) VH: QVQLVQSGAEVKKPGSSMKVSCKASGDTFSSYAISWVRQAPGQGLEWMAGIIPVFGTAHNAQKFQGRVTITADKSTSTAYMELSSLRSEDTAVYYCTRGGPYFDYWGQGTLVTVSS VL: EIVMTQSPATLSVSPGERAALSCRASQSVSSNLAWYQQKPGQAPRLLIYGVSTRATGIPDRFNGSGSGTEFTLTISSLQSEDFGAYYCQQYKKWPFIFGPGTKLEIK | 3.74E−04

Requested read-out: cynomolgus monkey k(off). Entry: 14D6_60B5: fully human VTCN1 antibody; VH SEQ ID NO: 278, VL SEQ ID NO: 281 (antibody, V domains shown) VH: QVQLVHSGAEVKRPGSSVKVSCKASGGTFSSYAISWVRQAPGQGLEWMGGIIPIFGIANYAQKFQGRVTIIADKSTRTAYMELSSLRSEDTAVYYCARGGPYFDYWGQGILVTVSS VL: EIVMTQSPATLSVSPGERATLSCRASQSVSSNLAWYQQKPGQAPRLLIYGASTRATGIPARFSGSGSGTEFTLTISSLQSEDFAVYYCQQYNKWPFTFGPGTKVDIK
6.91E−04

// cynomolgus monkey k(off) lookup, key: 7G7_44C6: fully human VTCN1 antibody; VH SEQ ID NO: 256, VL SEQ ID NO: 260 (antibody, V domains shown) VH: QVQLQESGPGLVKPSETLSLTCTVSGGSISHYYWSWIRQPPGKGLEWIGYIYYSGPTNYNPSLKSRVTISVDTSKNQFSLKLSSVTAADTAVYYCARTYYYGSGSFPDAFDIWGQGTMVTVSS VL: KIVLTQSPATLSLSPGERATLSCRASQSVSSYLAWYQQTPGQAPRLLIYDASNRATGIPARFSVSGSGTDFTLTISSLEPEDFAVYYCQQRSSWPLTFGGGTKLEIK
1.50E−01

Bench note: what cynomolgus monkey k(off) did 16H12_60B4: fully human VTCN1 antibody; VH SEQ ID NO: 283, VL SEQ ID NO: 286 (antibody, V domains shown) VH: QVQVVQSGAEVKKPGSSVKVSCKASGDTFSNYAISWVRQAPGQGLEWMGGIIPIFGITNYAQKFQGRVTIIADKSTRTAYMELSSLRSEDTAVYYCSRGGPYFDYWGQGILVTVSS VL: EIVMTQSPATLSVSPGERATLSCRASQSVSSNLAWYQQKPGQAPRLLIYGASTRATGIPARFSGSGSGTEFTLTISSLQSEDFAVYYCQQYKKWPFTFGPGTKVDIK show?
2.40E−04
